Hey, just so you know, these numbers are from patent US8859589B2.

# ASSAY NOTES: in vitro
ENDPOINT NAME: CC50

Request: Record request: CC50 value, item `O=c1[nH]c(=O)n([C@H]2C[C@H](O)[C@@H](CO)S2)cc1I`
Result: > 100 µM
